Attribute: koff
target.under.test: 3-pTza peptide (Biotin-AminocaproicAcid-AGAG-3-pTza-AGAG)
method.notes: BLI
Give the number; s⁻¹ is assumed, so skip it.

| binder | koff (s⁻¹) |
| --- | --- |
| hSC44.3 IgG (antibody, V domains shown) VH: EVQLVESGGGLVQPGGSLRLSCTASGFSIDSYGFSWVRQAPGKGLEHIGYLTAGGRAFYASWAKSRSTITRNTNENTVTLKMNSLRAEDTAVYYCAKIGSGSPVAIWG VL: DIQMTQSPSSLSASVGDRVTITCRASQSVWRNKNVAWYQQKPGKAPKRLIYAIASLYSGVPSRFSGSGSGTDFTLTISSLQPEDFATYYCVGHYGSENDAYYAFGQGTKVEIK | 1.43e-05 |

Pending binder:
The value of koff measured for the binder hSC44.1 IgG (antibody, V domains shown) VH: EVQLVESGGGLVQPGGSLRLSCTASGFSIDSYGFSWVRQAPGKGLEHIGYLTAGGRAFYASWAKSRSTITRNTNENTVTLKMNSLRAEDTAVYYCAKLGTGSPIAIWGQGTLVTVSS VL: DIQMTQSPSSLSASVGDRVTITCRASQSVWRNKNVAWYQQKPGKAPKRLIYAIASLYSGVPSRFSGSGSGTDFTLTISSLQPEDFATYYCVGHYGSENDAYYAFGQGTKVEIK turned out to be 8.32e-05
